Origin of the recorded values: PubChem BioAssay (NCI)

System: NCI-H226 lung
ASSAY_COMMENT: NCI-60 one-dose screen, 48 h (100 = growth as untreated, 0 = no growth, -100 = all killed)
TEST_CONDITIONS: 10 µM
This is part of a sample that, as a whole, favours compounds with a hit. Of some 83,000 tested, about 20% had one in any assay.
growth less than -10% is criterion met; growth greater than or equal to -10% is criterion not met.

>  <COMPOUND>
CN(C)c1nc(NCCNS(=O)(=O)c2ccc(C(=O)/C=C/c3ccccc3)cc2)nc(Nc2ccc(F)cc2)n1

>  <DISCRETE_LABEL>
criterion not met

$$$$
>  <COMPOUND>
Cc1ccc(C(C)C)cc1NC(=O)c1ccccc1O

>  <DISCRETE_LABEL>
criterion not met

$$$$
>  <COMPOUND>
COc1ccc2ncc(C#Cc3cncc(C(=O)Nc4ccc(CN5CCN(C)CC5)c(C(F)(F)F)c4)c3)n2n1

>  <DISCRETE_LABEL>
criterion met

$$$$
>  <COMPOUND>
COc1ccc(-c2ccc(SCC(=O)Nc3ccc(C#N)cc3)nn2)cc1

>  <DISCRETE_LABEL>
criterion not met

$$$$

Regarding CC(=O)Nc1ccc(-c2cn(-c3cccc(C(=O)Nc4cc(CN5CCOCC5)cc(C(F)(F)F)c4)c3)nn2)cn1 , kindly confirm whether its growth is beneath -10%.
criterion met

Given C=C1CCC2C3(C)COC(c4c(F)cccc4F)OC3CCC2(C)C1C/C=C1/C(=O)OCC1O (centres undefined) , is recorded growth strictly lower than -10%?
criterion met

Is -10% strictly greater than the compound's reported growth? compound: O=C1CCC(N2Cc3cc(NC(=O)COc4ccccc4)ccc3C2=O)C(=O)N1 (centres undefined)
criterion not met

Could you please tell me whether growth recorded for CC[C@@]1(O)C(=O)OCc2c1cc1n(c2=O)Cc2c-1nc1cc(F)c(C)c3c1c2[C@@H](N)CC3 is less than -10%?
criterion met

Dear reviewer, please state whether COc1ccc(CN2[C@H](C(=O)NCCCCCCC(=O)NO)Cc3c([nH]c4ccccc34)[C@H]2C2CC2)cc1 has growth strictly beneath -10%.
criterion not met

###

System: ACHN renal
ASSAY_COMMENT: NCI-60 one-dose screen, 48 h (100 = growth as untreated, 0 = no growth, -100 = all killed)
TEST_CONDITIONS: 10 µM
The panel holds about 83,000 compounds, 20% with a hit somewhere; the sample as a whole holds those more often.
Hi all, reminder that labels come from growth, split as low (below 10%), medium (10% to below 80%), high (80% or more)

// known answers, use as guide
>  <COMPOUND>
COc1ccc([C@H]2C(C(=O)c3ccc(Cl)cc3)C3(N[C@@H]2c2ccccc2)C(=O)Nc2ccc(Cl)cc23)cc1 (stereo partly specified)

>  <DISCRETE_LABEL>
low

$$$$
>  <COMPOUND>
Cc1ccn2c(C(=O)c3ccccc3)cc(-c3cc(-c4ccc(N(C)C)cc4)c(C#N)c(N)n3)c2c1

>  <DISCRETE_LABEL>
medium

$$$$
>  <COMPOUND>
CC1(C)CC[C@]2(C(=O)N3CCOCC3)CC[C@]3(C)C(=CC[C@@H]4[C@@]5(C)CC[C@H](NCO)C(C)(C)[C@@H]5CC[C@]43C)[C@H]2C1

>  <DISCRETE_LABEL>
low

$$$$
>  <COMPOUND>
Cc1ccc(/C(N)=N/c2sc(-c3ccccc3)nc2-c2ccccc2)cc1

>  <DISCRETE_LABEL>
medium

$$$$
>  <COMPOUND>
C/C(=C\c1ccc(O)cc1O)c1ccc2ccc(O)cc2[o+]1

>  <DISCRETE_LABEL>
medium

$$$$

Class for COc1nccnc1NS(=O)(=O)c1ccc(NC2=C(Cl)C(=O)c3nc(C)ccc3C2=O)cc1 ?
high

Field: class (growth) — entry: N#Cc1ccc(-c2nn(-c3ccc(C(=O)O)cc3)cc2CNc2cc(Cl)cc(C(F)(F)F)c2)cc1
medium

Form field 'band' for COc1ccc(NC(=O)Cn2c(/C=C/c3ccc(N(C)C)cc3)nc3ccccc3c2=O)cc1
low

###

Tested on: LOX IMVI melanoma
ASSAY_COMMENT: NCI-60 one-dose screen, 48 h
TEST_CONDITIONS: 10 µM
This is part of a sample that, as a whole, favours compounds with a hit. Of some 83,000 tested, about 20% had one in any assay. Activity calls are given as the source filed them. How the source made its calls: active means growth percent below 10; inactive means the rest.
Your answer must be one of the following: active, inactive

Consider the following illustrative entries.
>  <COMPOUND>
O=C(c1ccc(Cl)cc1)C1[C@H](c2ccccc2Br)[C@@H](c2ccccc2)NC12C(=O)Nc1ccccc12 (some centres undefined)

>  <DISCRETE_LABEL>
active

$$$$
>  <COMPOUND>
Cc1ccc(S(=O)(=O)c2nc(-c3ccccc3)oc2S(=O)(=O)CC(=O)N2CCCC2)cc1

>  <DISCRETE_LABEL>
active

$$$$
>  <COMPOUND>
CNC(=O)c1cc(-c2ccc(NC(=O)Nc3ccc(C)cc3)cc2)nc2cccnc12

>  <DISCRETE_LABEL>
inactive

$$$$

// return assay outcome for Cc1ccc(/C=C/C(=O)c2ccc(NC(=O)CSc3nnc(-c4c[nH]c5ccccc45)n3-c3ccccc3)cc2)c(C)c1
inactive

###

Kindly state growth for each of the entries shown.
Test system: IGROV1 ovarian
ASSAY_COMMENT: NCI-60 one-dose screen, 48 h (100 = growth as untreated, 0 = no growth, -100 = all killed)
TEST_CONDITIONS: 10 µM
This is part of a sample that, as a whole, favours compounds with a hit. Of some 83,000 tested, about 20% had one in any assay.
One number for each entry, in %.

>  <COMPOUND>
COc1ccc(-c2cc(-c3cc(C(=O)c4ccccc4)n4ccc(C)cc34)nc(N)c2C#N)cc1

>  <MEASURED_ON>
IGROV1 ovarian

>  <growth [%]>
79.1

$$$$
>  <COMPOUND>
O=C(Cn1nc(-c2ccccc2)ccc1=O)NN1C(=O)c2ccccc2C1=O

>  <MEASURED_ON>
IGROV1 ovarian

>  <growth [%]>
124

$$$$
>  <COMPOUND>
O=c1[nH]n(C(=S)N/N=C/c2ccc(F)cc2)c(=O)c2ccccc12

>  <MEASURED_ON>
IGROV1 ovarian

>  <growth [%]>
90.5

$$$$
>  <COMPOUND>
Nc1nc(Nc2ccc(Cl)cc2)nn1Cc1cccc(Br)c1

>  <MEASURED_ON>
IGROV1 ovarian

>  <growth [%]>
13

$$$$

For the next question, use this compound.
Return growth (reported value) for this compound: O=C1CCC(N2Cc3cc(CC(=O)Nc4ccc(N5CCCCC5)cc4)ccc3C2=O)C(=O)N1 (stereo not given)
31.8

###

Tested on: SK-MEL-28 melanoma
ASSAY_COMMENT: NCI-60 one-dose screen, 48 h
TEST_CONDITIONS: 10 µM
Compounds without any hit were thinned out: in the full panel of roughly 83,000, 20% have a hit. The source made the active and inactive calls. How the source made its calls: active means growth percent below 10; inactive means the rest.
Field 'call' accepts Y (active), N (inactive)

>  <COMPOUND>
O=C(c1ccc([N+](=O)[O-])c([N+](=O)[O-])c1O)n1[nH]c(=O)c2ccccc2c1=O

>  <DISCRETE_LABEL>
N

$$$$
>  <COMPOUND>
O=c1[nH]c2ccc(Cl)cc2cc1CSc1ccc(Nc2nccc(-c3ccc4ccccc4c3)n2)cc1

>  <DISCRETE_LABEL>
N

$$$$
>  <COMPOUND>
COc1ccc([C@H]2C(C(=O)c3ccc(Cl)cc3)C3(N[C@@H]2c2ccccc2)C(=O)Nc2ccc(Cl)cc23)cc1 (some centres undefined)

>  <DISCRETE_LABEL>
Y

$$$$
>  <COMPOUND>
N#Cc1c(NC(=O)c2ccc(C(F)(F)F)cc2C(F)(F)F)sc2c1CCC(=O)C2

>  <DISCRETE_LABEL>
Y

$$$$
>  <COMPOUND>
Cc1noc2c(Cc3ccc([N+](=O)[O-])cc3)nn(CC(=O)N/N=C/c3ccc(Br)cc3)c(=O)c12

>  <DISCRETE_LABEL>
N

$$$$

Assay outcome for CCOc1ccc(Nc2nc3ccccc3nc2Nc2ccc(OCC)cc2)cc1 : what was it?
N

Fill in: this test's call for CCCn1c(=O)c2[nH]c(-c3ccc(OCc4nc5ccc(C(F)(F)F)cc5[nH]4)cc3)nc2n(CCC)c1=O is ___
N

How did this test come out for O=C1Nc2cc(-c3ccc(NC(=O)c4cccc([N+](=O)[O-])c4)cc3)ccc2/C1=C/c1ccc[nH]1 ?
N

Write down the call the test reported for this compound. Item: COc1cc2c3c(n(CCCNCCO)c(=O)c2cc1OC)-c1nc2c(cc1C3=O)OCO2
N

###

Tested on: UO-31 renal
ASSAY_COMMENT: NCI-60 one-dose screen, 48 h
TEST_CONDITIONS: 10 µM
Compounds without any hit were thinned out: in the full panel of roughly 83,000, 20% have a hit. The source made the active and inactive calls. How the source made its calls: active means growth percent below 10; inactive means the rest.
Outcome field: choose from 1 (yes) (active), 0 (no) (inactive)

>  <COMPOUND>
COc1cc2c3c(n(CCCNCCO)c(=O)c2cc1OC)-c1nc2c(cc1C3=O)OCO2

>  <DISCRETE_LABEL>
0 (no)

$$$$
>  <COMPOUND>
COc1ccc(-c2ccc(SCC(=O)Nc3ccc(C#N)cc3)nn2)cc1

>  <DISCRETE_LABEL>
0 (no)

$$$$
>  <COMPOUND>
COc1ccc2[nH]c(=O)c(CSc3nccc(-c4ccc(Cl)cc4)n3)cc2c1

>  <DISCRETE_LABEL>
1 (yes)

$$$$
>  <COMPOUND>
C=C1CCC2C3(C)COC(c4ccccc4F)OC3CCC2(C)C1C/C=C1/C(=O)OCC1O (centres undefined)

>  <DISCRETE_LABEL>
1 (yes)

$$$$
>  <COMPOUND>
O=C(Nc1nc2ccc([N+](=O)[O-])cc2s1)Nc1ccccc1I

>  <DISCRETE_LABEL>
1 (yes)

$$$$

Please share the test call associated with CC(C)(C)c1ccc(NCc2cn(-c3ccc(C(=O)O)cc3)nc2-c2ccc(C#N)cc2)cc1 .
0 (no)
